Molecular target: MMP-9 (92 kDa, gelatinase B; type IV collagenase) (Homo sapiens)
Construct: endogenous in cells; enzyme purified from the conditioned medium
Assay: Assay of type IV collagenase inhibitors: activated MMP-9 with type IV collagenase activity kit substrate, fluorescent intensity
Type: biochemical
pIC50: −log10 of the molar value.
Measurement Kind: pIC50

Known results for compounds:
O=C(Nc1ccc(S(=O)(=O)N[C@H](Cc2ccccc2)C(=O)O)cc1)c1ccc(Br)cc1 ... 7.43
CC(C)[C@H](C(=O)NO)N(C)S(=O)(=O)c1ccc(Oc2ccccc2)cc1 ... 10.41
CC(C)[C@@H](NS(=O)(=O)c1ccc(NC(=O)c2ccc(F)cc2)cc1)C(=O)O ... 6.31
CSc1ccc(C(=O)Nc2ccc(S(=O)(=O)N[C@H](Cc3ccccc3)C(=O)O)cc2)cc1 ... 8.02
O=C(O)[C@@H](Cc1ccccc1)NS(=O)(=O)c1ccc(-c2nnn(-c3ccc(Br)cc3)n2)cc1 ... 6.97
Cc1cccc2[nH]cc(CC(NS(=O)(=O)c3ccc(-c4nnn(-c5ccccc5)n4)cc3)C(=O)O)c12 (stereo not shown) ... 6.97
O=C(O)[C@@H](Cc1c[nH]c2ccccc12)NS(=O)(=O)c1ccc(-c2nnn(-c3ccc(F)cc3)n2)cc1 ... 7.70
CC(C)[C@H](C(=O)O)N(C)S(=O)(=O)c1ccc(Oc2ccccc2)cc1 ... 6.62
CC(C)[C@@H](NS(=O)(=O)c1ccc(-c2nnn(-c3ccc(O)cc3)n2)cc1)C(=O)O ... 6.46
Cc1cnc(C(=O)Nc2ccc(S(=O)(=O)N[C@H](Cc3ccccc3)C(=O)O)cc2)cn1 ... 5.40

(A) COc1ccc(-n2nnc(-c3ccc(S(=O)(=O)N[C@@H](C(=O)O)C(C)(C)C)cc3)n2)cc1
(B) O=C(Nc1ccc(S(=O)(=O)N[C@H](Cc2ccccc2)C(=O)O)cc1)c1ccc(F)cc1
(C) CC(C)[C@@H](NS(=O)(=O)c1ccc(NC(=O)c2ccc(-c3ccccc3)cc2)cc1)C(=O)O
Hey, quick one: sort these by pIC50, low to high? Order the labels as requested and give them as your answer. C, B, A

###

Molecular target: MMP-9 (92 kDa, gelatinase B; type IV collagenase) (Homo sapiens, UniProt P14780)
Construct: endogenous in cells; enzyme purified from the conditioned medium
Sequence (P14780 107-707 limits assumed): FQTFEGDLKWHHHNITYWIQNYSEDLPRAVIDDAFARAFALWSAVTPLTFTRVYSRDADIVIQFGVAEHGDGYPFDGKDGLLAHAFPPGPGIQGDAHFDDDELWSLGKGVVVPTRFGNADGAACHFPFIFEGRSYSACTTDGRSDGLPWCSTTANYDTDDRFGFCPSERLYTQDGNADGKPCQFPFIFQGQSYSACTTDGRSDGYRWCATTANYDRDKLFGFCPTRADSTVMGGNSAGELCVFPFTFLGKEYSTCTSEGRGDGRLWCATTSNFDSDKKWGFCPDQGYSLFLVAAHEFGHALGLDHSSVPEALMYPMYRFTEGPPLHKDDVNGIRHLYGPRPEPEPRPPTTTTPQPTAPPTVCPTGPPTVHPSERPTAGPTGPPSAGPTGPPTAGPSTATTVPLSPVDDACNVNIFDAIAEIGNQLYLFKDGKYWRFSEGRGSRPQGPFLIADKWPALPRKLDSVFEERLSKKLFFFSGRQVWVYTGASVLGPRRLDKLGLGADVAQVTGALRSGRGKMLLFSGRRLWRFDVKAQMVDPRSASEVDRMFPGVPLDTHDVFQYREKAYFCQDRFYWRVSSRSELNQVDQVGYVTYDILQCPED
Assay: Assay of type IV collagenase inhibitors: activated MMP-9 with type IV collagenase activity kit substrate, fluorescent intensity
Format: biochemical
Settings: inhibition of type IV collagenase (MMP-9), concentration at which percent inhibition reaches 50%
pIC50: −log10 of the molar value.
Measurement Kind: pIC50

CN(C)c1ccc(N=Nc2ccc(S(=O)(=O)N[C@H](Cc3ccccc3)C(=O)O)cc2)cc1 ... 6.46
CC(C)[C@@H](NS(=O)(=O)c1ccc(-c2ccc(F)cc2)s1)C(=O)O ... 5.89
O=C(O)[C@@H](Cc1c[nH]c2ccccc12)NS(=O)(=O)c1ccc(-c2nc3ccccc3s2)cc1 ... 5.75
Cc1ccc(-n2nnc(-c3ccc(S(=O)(=O)N[C@H](Cc4ccccc4)C(=O)O)cc3)n2)cc1 ... 7.06
CC(C)[C@@H](NS(=O)(=O)c1ccc(C#Cc2ccc(F)cc2)cc1)C(=O)O ... 6.69
O=C(Nc1ccc(S(=O)(=O)N[C@H](Cc2ccccc2)C(=O)O)cc1)c1ccncc1 ... 5.35
Cc1ccc(C(=O)Nc2ccc(S(=O)(=O)N[C@H](Cc3ccccc3)C(=O)O)cc2)cc1 ... 7.22
O=C(NO)[C@@H](Cc1ccccc1)NS(=O)(=O)c1ccc(N=Nc2ccccc2)cc1 ... 7.89
C#Cc1ccc(C#Cc2ccc(S(=O)(=O)N[C@H](Cc3c[nH]c4ccccc34)C(=O)O)cc2)cc1 ... 7.32
O=C(Nc1ccc(S(=O)(=O)N[C@H](Cc2ccccc2)C(=O)O)cc1)c1ccccc1 ... 6.07

(I) Cc1ccc(-c2ccc(S(=O)(=O)N[C@@H](C(=O)O)C(C)C)s2)cc1
(II) COc1ccc(C#Cc2ccc(S(=O)(=O)N[C@@H](C(=O)O)C(C)(C)C)cc2)cc1
Would you let me know which has the greater pIC50 value, I or II ? Bench note: the answer is the label of the chosen record. I

###

Target: MMP-9 (92 kDa, gelatinase B; type IV collagenase) (Homo sapiens)
Construct: endogenous in cells; enzyme purified from the conditioned medium
Experiment: Assay of type IV collagenase inhibitors: activated MMP-9 with type IV collagenase activity kit substrate, fluorescent intensity
Format: biochemical
Conditions: inhibition of type IV collagenase (MMP-9), concentration at which percent inhibition reaches 50%
pIC50: −log10 of the molar value.
Measurement Kind: pIC50

O=C(O)[C@@H](Cc1ccccc1)NS(=O)(=O)c1ccc(C#Cc2ccc(F)cc2)s1 ... 6.65

(1) Nc1ccc(C#Cc2ccc(S(=O)(=O)N[C@H](Cc3c[nH]c4ccccc34)C(=O)O)cc2)cc1
(2) O=C(O)[C@@H](Cc1c[nH]c2ccccc12)NS(=O)(=O)c1ccc(C#Cc2ccccc2)cc1
Lab note: check whether 1 or 2 has the lower measured pIC50. Record your answer as the label of the chosen record. 2
(2: 6.63, 1: 7.24)

###

Target: MMP-9 (92 kDa, gelatinase B; type IV collagenase) (Homo sapiens)
Construct: endogenous in cells; enzyme purified from the conditioned medium
Test: Assay of type IV collagenase inhibitors: activated MMP-9 with type IV collagenase activity kit substrate, fluorescent intensity
Assay type: biochemical
Conditions: activated MMP-9, type IV collagenase activity kit substrate, fluorescent intensity; concentration at which percent inhibition reaches 50%
pIC50: −log10 of the molar value.
Measurement Kind: pIC50

# annotated cases, reported pIC50 shown
CC(C)[C@@H](NS(=O)(=O)c1ccc(-c2ccc(F)cc2)cc1)C(=O)O ... 5.94
CN(C)c1cccc2c(S(=O)(=O)N[C@H](Cc3ccccc3)C(=O)NO)cccc12 ... 5.77

(a) O=C(NO)[C@@H](Cc1ccccc1)NS(=O)(=O)c1ccc(O)cc1
(b) CSc1ccc(-c2ccc(S(=O)(=O)N[C@@H](C(=O)O)C(C)C)cc2)cc1
Of a and b , which shows the smaller pIC50 value? Mark your answer with the label of the selected entry. a

###

# maps each entry to its melting point

I have this molecule here, Cc1ccc(C(=O)Nc2ccc(S(=O)(=O)N[C@H](Cc3c[nH]c4ccccc34)C(=O)O)cc2)cc1 (hydrate or solvate) , and I need its recorded melting point. 240 to 244 °C

###

Consider the following molecules and their measured melting point readings.

Fill in: melting point of O=C(Nc1ccc(S(=O)(=O)N[C@H](Cc2c[nH]c3ccccc23)C(=O)O)cc1)c1ccccc1 is ___ 215 to 217 °C

For the molecule CSc1ccc(-n2nnc(-c3ccc(S(=O)(=O)N[C@H](Cc4c[nH]c5ccccc45)C(=O)O)cc3)n2)cc1 (hydrate or solvate) , what melting point is on record? 213 to 216 °C

Name the recorded melting point for O=C(O)[C@@H](Cc1ccccc1)NS(=O)(=O)c1ccc(-c2nnn(-c3ccc(F)cc3)n2)cc1 (hydrate or solvate) . 205 to 207 °C

###

Measurement Kind: melting point

The examples below pair each entry with its known result.
O=C(Nc1ccc(S(=O)(=O)N[C@H](Cc2ccccc2)C(=O)O)cc1)c1ccc([N+](=O)[O-])cc1 ... 235 to 239 °C
CN(C)c1ccc(C(=O)Nc2ccc(S(=O)(=O)N[C@H](Cc3c[nH]c4ccccc34)C(=O)O)cc2)cc1 (hydrate or solvate) ... 236 to 238 °C
CSc1ccc(-c2ccc(S(=O)(=O)N(C)[C@@H](C(=O)O)C(C)C)s2)cc1 ... 141 to 144 °C

Now take the following compound into account.
Endpoint output: melting point of Cc1cnc(C(=O)Nc2ccc(S(=O)(=O)N[C@H](Cc3ccccc3)C(=O)O)cc2)cn1 . Value? 236 to 237 °C

###

Examples of compounds with documented melting point follow.

CC(C)[C@@H](NS(=O)(=O)c1ccc(NC(=O)c2ccc(F)cc2)cc1)C(=O)O ... 235 to 236 °C
CC(C)[C@H](C(=O)NO)N(C)S(=O)(=O)c1ccc(Oc2ccccc2)cc1 ... 110 to 111 °C
O=C(Nc1ccc(S(=O)(=O)N[C@H](Cc2ccccc2)C(=O)O)cc1)c1ccc(Br)cc1 ... 242 to 243 °C
Nc1ccc(C(=O)Nc2ccc(S(=O)(=O)N[C@H](Cc3c[nH]c4ccccc34)C(=O)O)cc2)cc1 ... 216 to 218 °C
O=C(Nc1ccc(S(=O)(=O)N[C@H](Cc2ccccc2)C(=O)O)cc1)c1ccc(F)cc1 ... 218 to 220 °C
O=C(O)[C@@H](Cc1ccccc1)NS(=O)(=O)c1ccc(-c2nnn(-c3ccc(C(F)(F)F)cc3)n2)cc1 ... 197 to 198 °C

So what's the measured melting point for this one? CC(C)[C@@H](NS(=O)(=O)c1ccc(-c2nnn(-c3ccc(O)cc3)n2)cc1)C(=O)O 190 °C (dec.)

What does the data say about its melting point? Entry: O=C(Nc1ccc(S(=O)(=O)N[C@H](Cc2ccccc2)C(=O)O)cc1)c1ccc(Cl)nc1 201 to 203 °C

Which value of melting point has been reported for O=C(O)C(Cc1c[nH]c2ccc(F)cc12)NS(=O)(=O)c1ccc(-c2nnn(-c3ccccc3)n2)cc1 (stereo not drawn) in the records? 224 to 225 °C

Entry Cc1ccc(C(=O)Nc2ccc(S(=O)(=O)N[C@@H](C(=O)O)C(C)C)cc2)cc1 (hydrate or solvate) : reported melting point = ? 227 to 229 °C

I am curious: what melting point value has been reported for O=C(O)[C@@H](Cc1ccccc1)NS(=O)(=O)c1ccc(-c2nnn(-c3ccc(Oc4ccccc4)cc3)n2)cc1 ? 182 to 184 °C

Using the record for CC(C)C[C@H](C(=O)O)N(C)S(=O)(=O)c1ccc(-c2nnn(-c3ccccc3)n2)cc1 , report its melting point. 132 to 132.5 °C

Quick one: melting point of COc1ccc(C(=O)Nc2ccc(S(=O)(=O)N[C@@H](C(=O)O)C(C)(C)C)cc2)cc1 (hydrate or solvate) ? 214 to 216 °C

State the recorded melting point for this entry: N#Cc1ccc(-n2nnc(-c3ccc(S(=O)(=O)N[C@H](Cc4ccccc4)C(=O)O)cc3)n2)cc1 (hydrate or solvate) 190 to 192 °C

Sample CSc1ccc(C(=O)Nc2ccc(S(=O)(=O)N[C@H](Cc3c[nH]c4ccccc34)C(=O)O)cc2)cc1 (hydrate or solvate) — what was its melting point? 244 to 249 °C
